Tested on: LoVo-Dox
Assay: SRB colorimetric assay of cell growth and viability, LoVo-Dox
Assay type: cell-based, human
Settings: 48 hours exposure, SRB; read-out: LC50 LOVO-DOX
Where a SMILES comes first, the peptide text is derived from it. Bridges are numbered along the chain shown (N, C = ends). [ ]: non-standard residue; d: D form. The star is where a group is joined. d(aIle) = CC[C@H](C)[C@@H](N)C(=O)O; d(aThr) = C[C@@H](O)[C@@H](N)C(=O)O; Hexanoyl(5-Me) = CC(C)CCCC(=O)*; Orn = NCCC[C@H](N)C(=O)O; Aib = CC(C)(N)C(=O)O

# compound, assayed.system, unit.name, CC50
rows = [
    ("C/C=C1\\NC(=O)[C@H](Cc2ccccc2)NC(=O)[C@@H](C(C)C)NC(=O)[C@@H]([C@@H](C)CC)NC(=O)[C@H](NC(=O)[C@H](NC(=O)[C@H](CCCNC(=O)C(F)(F)F)NC(=O)[C@H]2CCCN2C(=O)[C@H](NC(=O)[C@@H](NC(=O)[C@@H](NC(=O)[C@H](NC(=O)CC[C@@H](C)CC)C(C)C)[C@@H](C)O)C(C)C)C(C)C)[C@@H](C)CC)[C@@H](C)OC(=O)[C@H](C(C)C)NC1=O", "LoVo-Dox", "µM", 0.559),
    ("CC[C@H](C)[C@@H](NC(=O)[C@H](CCCN)NC(=O)[C@H]1CCCN1C(=O)[C@H](NC(=O)[C@@H](NC(=O)[C@@H](NC(=O)[C@H](NC(=O)CCCC(C)C)C(C)C)[C@@H](C)O)C(C)C)C(C)C)C(=O)N[C@H]1C(=O)N[C@H]([C@@H](C)CC)C(=O)N[C@H](C(C)C)C(=O)N[C@@H](Cc2ccccc2)C(=O)NC(C)(C)C(=O)N[C@@H](C(C)C)C(=O)O[C@@H]1C [Compound 66, [Aib^2]-KF] ({Hexanoyl(5-Me)}-[dV]TV[dV][dP][Orn][d(aIle)][d(aThr)][d(aIle)][dV]F[Aib]V; ester 8-C)", "LoVo-Dox", "µM", 4.8),
]
